Measured Absorption maximum, listed per entry for reference.
ASSAY_REMARKS: Absorption maximum of the structures
Format: physicochemical
MEASUREMENT_CONDITIONS: Table 1; measured in methanol, or if not soluble in methanol, in ethanol
QUANTITY_MEASURED: Absorption maximum (nm)

| COMPOUND | QUANTITY_MEASURED | RECORDED_MEASUREMENT |
| --- | --- | --- |
| CCCCCCN(/C=C/C=C1C(=O)N(C)N(C)C1=O)CCCCCC | Absorption maximum | 387 |
| CCCCCCN(/C=C/C=C1C(=O)N(C)C(=O)N(C)C1=O)CCCCCC [Structure 1.10r] | Absorption maximum | 388 |
| CCCCCCN(/C=C/C=C(\C(C)=O)S(=O)(=O)c1ccccc1)CCCCCC | Absorption maximum | 385 |
| CCCCC(CC)COC(=O)C(=C/C=C/N(C)C)C(=O)OCC(CC)CCCC (stereo not drawn) | Absorption maximum | 374 |
| CCCCCCN(/C=C/C=C(/C(=O)OCC)S(=O)(=O)c1ccccc1)CCCCCC | Absorption maximum | 373 |
| CCCCCCN(/C=C/C=C(C#N)C#N)CCCCCC | Absorption maximum | 378 |
| CCCCN(/C=C/C=C(\C(=O)OC)S(=O)(=O)c1ccc(C(C)(C)C)cc1)CCCC | Absorption maximum | 373 |
| CCCCN(/C=C/C=C1C(=O)CC(C)(C)CC1=O)CCCC | Absorption maximum | 389 |
| CCCCCCN(/C=C/C=C(C(C)=O)C(C)=O)CCCCCC [Structure 1.13r] | Absorption maximum | 395 |
| CCCCN(/C=C/C=C(\C(C)=O)S(=O)(=O)c1ccc(C)cc1)CCCC | Absorption maximum | 385 |
| CCCCCCCCCCOC(=O)/C(=C/C=C/N(C)C)C(C)=O [Structure 1.12r] | Absorption maximum | 394 |
| CCCCCCN(/C=C/C=C(\C(=O)OCCOc1ccc(C(C)(C)CC)cc1C(C)(C)CC)S(=O)(=O)c1ccc(C)cc1)CCCCCC | Absorption maximum | 374 |
